Provide the recorded IC50 for the entries that follow.
biological target: PI3Kδ (Homo sapiens, UniProt O00329); assay: PI3K enzyme inhibitory activity in the cell free assay (ADP-Glo Kinase Assay); settings: human recombinant PI3Kδ, ATP 80 μM; read-out: PI3K delta inhibition
Sequence (O00329 whole entry): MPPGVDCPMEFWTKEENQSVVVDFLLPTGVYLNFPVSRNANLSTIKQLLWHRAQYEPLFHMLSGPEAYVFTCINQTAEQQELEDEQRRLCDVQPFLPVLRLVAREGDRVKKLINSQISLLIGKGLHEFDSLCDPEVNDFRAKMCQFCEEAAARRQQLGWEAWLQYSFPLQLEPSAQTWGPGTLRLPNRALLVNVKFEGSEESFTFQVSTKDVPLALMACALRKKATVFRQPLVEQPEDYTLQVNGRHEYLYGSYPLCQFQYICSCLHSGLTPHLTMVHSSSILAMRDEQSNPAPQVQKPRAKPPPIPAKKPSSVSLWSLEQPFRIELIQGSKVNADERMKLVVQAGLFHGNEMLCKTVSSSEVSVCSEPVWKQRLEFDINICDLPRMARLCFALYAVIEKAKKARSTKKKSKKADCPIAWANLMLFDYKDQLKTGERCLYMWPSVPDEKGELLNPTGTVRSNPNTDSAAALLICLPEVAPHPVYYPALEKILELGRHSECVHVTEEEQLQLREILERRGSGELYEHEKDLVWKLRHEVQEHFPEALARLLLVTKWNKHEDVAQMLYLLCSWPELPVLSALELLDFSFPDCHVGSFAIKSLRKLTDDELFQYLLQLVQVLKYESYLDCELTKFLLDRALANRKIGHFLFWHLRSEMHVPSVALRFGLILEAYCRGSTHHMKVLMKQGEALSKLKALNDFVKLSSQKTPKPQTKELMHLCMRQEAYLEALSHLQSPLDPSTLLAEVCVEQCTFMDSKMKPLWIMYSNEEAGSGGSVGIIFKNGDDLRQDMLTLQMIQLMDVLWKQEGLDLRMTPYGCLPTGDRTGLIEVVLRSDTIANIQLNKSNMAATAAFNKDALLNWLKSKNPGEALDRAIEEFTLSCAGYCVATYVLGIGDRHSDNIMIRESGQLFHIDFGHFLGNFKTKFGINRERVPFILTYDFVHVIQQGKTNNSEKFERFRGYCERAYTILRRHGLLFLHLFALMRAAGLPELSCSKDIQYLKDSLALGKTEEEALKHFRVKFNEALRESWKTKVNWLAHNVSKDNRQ
Counter-ions that a name gives are not always drawn.

Prompt: Can you share its IC50? I mean this molecule: CC(c1oc(=O)c2ccc(F)cc2c1-c1ccccc1)n1nc(-c2cc(O)cc(F)c2)c2c(N)ncnc21 (stereo not shown)
Completion: < 10 nM

Prompt: Query: IC50; subject: Nc1ncnc2c1c(-c1cncc(O)c1)nn2CC1=C(c2ccccc2)c2ccccc2CO1
Completion: 10 to 1000 nM

Prompt: I have this molecule here, CC(c1oc(=O)c2ccccc2c1-c1ccccc1)n1nc(-c2cccc3[nH]ncc23)c2c(N)ncnc21 (stereo not shown) , and I need its recorded IC50.
Completion: 10 to 1000 nM

Prompt: For the molecule shown here, CC(c1oc(=O)c2ccccc2c1-c1ccc(CN2CCN(C)CC2)s1)n1nc(-c2cc(O)cc(F)c2)c2c(N)ncnc21 (stereo not shown) [Example 135, dihydrochloride] , give the reported IC50.
Completion: < 10 nM

Prompt: Using the record for O=c1oc(CNc2ncnc3[nH]cnc23)c(-c2ccccc2F)c2ccccc12 , report its IC50.
Completion: 10 to 1000 nM

Prompt: Form field: reported IC50 of CC(c1oc(=O)c2ccccc2c1C1=CCCN(Cc2ccccc2)C1)n1nc(-c2cc(O)cc(F)c2)c2c(N)ncnc21 (stereo not shown) [Example 169, hydrochloride]
Completion: < 10 nM

Prompt: What does the data say about its IC50? Entry: CC(NC(=O)c1c(N)nn2cccnc12)c1oc(=O)c2ccccc2c1-c1ccccc1 (stereo not shown)
Completion: 10 to 1000 nM

---

target: PI3Kα (Homo sapiens); assay: PI3K enzyme inhibitory activity in the cell free assay (ADP-Glo Kinase Assay); conditions: human recombinant PI3Kα, ATP 50 μM; read-out: PI3K alpha inhibition
Sequence (P42336 whole entry): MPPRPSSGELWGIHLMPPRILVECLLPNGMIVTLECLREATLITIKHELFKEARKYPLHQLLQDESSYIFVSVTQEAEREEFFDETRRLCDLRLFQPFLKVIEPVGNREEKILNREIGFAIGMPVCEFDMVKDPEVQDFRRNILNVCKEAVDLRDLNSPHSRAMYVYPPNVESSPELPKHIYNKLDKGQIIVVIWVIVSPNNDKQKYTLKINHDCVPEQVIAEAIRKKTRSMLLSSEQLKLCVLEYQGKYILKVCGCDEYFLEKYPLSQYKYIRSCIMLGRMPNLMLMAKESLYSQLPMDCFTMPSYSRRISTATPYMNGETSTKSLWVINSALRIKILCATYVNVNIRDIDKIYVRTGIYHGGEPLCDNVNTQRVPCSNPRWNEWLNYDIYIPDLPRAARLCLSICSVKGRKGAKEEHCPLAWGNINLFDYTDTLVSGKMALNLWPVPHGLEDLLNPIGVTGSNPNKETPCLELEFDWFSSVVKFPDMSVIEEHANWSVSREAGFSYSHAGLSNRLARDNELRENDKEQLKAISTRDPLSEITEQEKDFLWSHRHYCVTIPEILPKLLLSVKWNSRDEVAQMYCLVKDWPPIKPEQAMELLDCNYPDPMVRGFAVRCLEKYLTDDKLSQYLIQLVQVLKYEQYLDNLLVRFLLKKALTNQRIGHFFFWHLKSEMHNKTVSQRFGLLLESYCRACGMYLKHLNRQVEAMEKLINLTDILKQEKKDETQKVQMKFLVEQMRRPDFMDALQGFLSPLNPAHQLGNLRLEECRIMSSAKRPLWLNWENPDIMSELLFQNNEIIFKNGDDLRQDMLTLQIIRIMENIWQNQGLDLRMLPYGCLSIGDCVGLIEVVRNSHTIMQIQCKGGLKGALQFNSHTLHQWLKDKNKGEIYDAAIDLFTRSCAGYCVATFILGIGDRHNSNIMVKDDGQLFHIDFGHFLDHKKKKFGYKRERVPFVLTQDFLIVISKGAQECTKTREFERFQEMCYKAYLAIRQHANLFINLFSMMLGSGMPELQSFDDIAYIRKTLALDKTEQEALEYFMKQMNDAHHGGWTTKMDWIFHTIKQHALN
Counter-ions that a name gives are not always drawn.
So I've got a bunch of compounds here, and I need their IC50 values.

Prompt: Record lookup: for PI3Kα (Homo sapiens), what IC50 belongs to CC(c1oc(=O)c2ccccc2c1C1=CCCN(C2CNC2)C1)n1nc(-c2cc(O)cc(F)c2)c2c(N)ncnc21 (stereo not drawn) [Example 173, dihydrochloride] ?
Completion: 0.01 to 1 µM

Prompt: Identify the measured IC50 of Cc1ncc(-c2nn(C(C)c3oc(=O)c4ccccc4c3-c3ccccc3)c3ncnc(N)c23)cc1O (stereo not drawn) [Example 99] for PI3Kα (Homo sapiens).
Completion: 0.01 to 1 µM

Prompt: Param readout= IC50; system= PI3Kα (Homo sapiens); entry= CC(c1oc(=O)c2ccccc2c1C1=CCN(C)CC1)n1nc(-c2cc(O)cc(C(F)(F)F)c2)c2c(N)ncnc21 (stereo not drawn) [Example 155, formate] ; returns value.
Completion: > 1 µM

---

target: PI3Kδ (Homo sapiens, UniProt O00329); construct: purchased Millipore Ltd (Billerica, Mass.); assay: PI3K enzyme inhibitory activity in the cell free assay (ADP-Glo Kinase Assay); type: biochemical; settings: human recombinant PI3Kδ, ATP 80 μM; read-out: PI3K delta inhibition
pIC50: −log10 of the molar value. Where a name gives a salt, the structure may show the parent alone.
ENDPOINT: pIC50

Prompt: Fill in the recorded pIC50 for this molecule, with PI3Kδ (Homo sapiens, UniProt O00329) as test system: CC(c1oc(=O)c2ccccc2c1C1=CCN(C)CC1)n1nc(-c2cncc(O)c2)c2c(N)ncnc21 (stereo not drawn) [Example 175, hydrochloride]
Completion: > 8.00

Prompt: For PI3Kδ (Homo sapiens, UniProt O00329), provide pIC50 of Cc1cccc(-c2c(Cn3cnc4c(N)ncnc43)oc(=O)c3ccccc23)c1 [Example 4] please.
Completion: 6.00 to 8.00

Prompt: Request - read-out pIC50 | tested on PI3Kδ (Homo sapiens, UniProt O00329) | molecule CCC(Nc1ncnc2[nH]cnc12)c1oc(=O)c2ccccc2c1-c1ccccc1 (stereo not drawn) [Example 25]
Completion: > 8.00
